# system-under-test: T1, recombinant human activated Factor VII (FVIIa) (human, UniProt P08709 61-212; P08709 213-466, Gla domain: ten glutamate residues may be gamma-carboxylated)
# T1 sequence 1: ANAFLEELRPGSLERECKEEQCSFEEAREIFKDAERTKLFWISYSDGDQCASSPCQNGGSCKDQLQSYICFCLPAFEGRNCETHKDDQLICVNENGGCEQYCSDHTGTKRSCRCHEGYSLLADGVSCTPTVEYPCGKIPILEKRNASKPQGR
# T1 sequence 2: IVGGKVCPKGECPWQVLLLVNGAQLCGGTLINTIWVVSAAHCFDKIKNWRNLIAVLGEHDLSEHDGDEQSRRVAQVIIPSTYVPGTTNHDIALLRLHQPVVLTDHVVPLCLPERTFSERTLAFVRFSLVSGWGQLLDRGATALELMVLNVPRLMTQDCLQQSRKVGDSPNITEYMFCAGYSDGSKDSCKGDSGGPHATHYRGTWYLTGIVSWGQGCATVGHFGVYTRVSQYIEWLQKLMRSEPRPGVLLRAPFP
# method-summary: cell-based or functional assay
observation-type: TGT activity (% FVIIa)
A number alone suffices; assume % FVIIa.

1) mAb0544 (antibody, V domains shown, fully murine, hybridoma-derived; also called 11F9) VH: DVQLQESGPGLVKPSQSLSLTCTVTGYSITSDCAWNWIRQFPGNKLEWMGYINYSGSTNYNPSLKSRISITRDTSQNHFFLQLSSVTAEDTATYYCTRSVNYYGNSFAVGYWGQGISVTVSS VL: DIVMSQSPATLSVTPGDRVSLSCRTSQDIGDYLHWYRQKSHESPRLLIKYTSQSVSGIPSRFSGSGSGSDFTLSINTVEPEDVGLYYCQNGHSFPLTFGTGTRLELK | 103

Query binder follows.
Record mAb0005 (antibody, V domains shown, fully murine, hybridoma-derived; also called 11F2; mAb005) VH: DVQLQESGPGLVEPSQSLSLTCTVTGYSITSDCAWSWIRQFPGNKLEWMGYINYSGSTNYNPSLKSRISVTRDTSKNQFFLRLSSVTAEDTATYYCTRSVNYYGNSFAVGYWGQGTSVTVSS VL: DIVMTQSPATLSVTAGDRVSLSCRASQGISDYLHWYQQKSHESPRLLIKYTSQPVSGIPSRFSGSGSGSEFTLSINSVEPEDVGVYYCQNGHSFPLTFGAGTKLELK . Reported TGT activity (% FVIIa): 115
